Provenance of the data: ChEMBL document CHEMBL4422692

- Target under test: Fatty-acid amide hydrolase 1 (Rattus norvegicus)
- Test name: Inhibition of FAAH in rat brain membranes at 50 uM using [14C]-AEA as substrate measured after 30 mins by scintillation counting method relative to control
- Type: cell membranes
Reported Emax values for the following compounds.
Report only the number, with the unit % understood.

// known answers, use as guide
Compound	Target under test	Emax / %
CCCCCc1cc(O)c(C/C=C(\C)CCC=C(C)C)c(O)c1C(=O)O [CANNABIGEROLIC ACID]	Fatty-acid amide hydrolase 1 (Rattus norvegicus)	46.2
C=C(C)[C@@H]1CCC(C)=C[C@H]1c1c(O)cc(CCCCC)c(C(=O)O)c1O [CANNABIDIOLIC ACID]	Fatty-acid amide hydrolase 1 (Rattus norvegicus)	42.2
CCCCCc1cc(O)c2c(c1)OC(C)(C)c1ccc(C)cc1-2 [CANNABINOL]	Fatty-acid amide hydrolase 1 (Rattus norvegicus)	29.1

// recorded Emax for CCCCCc1cc2c(c(O)c1C(=O)O)[C@@H]1C=C(C)CC[C@H]1C(C)(C)O2 [DELTA9-TETRAHYDROCANNABINOLIC ACID A] : 38.8

// recorded Emax for C=C(C)[C@@H]1CCC(C)=C[C@H]1c1c(O)cc(CCCCC)cc1O [CANNABIDIOL] : 68.6

----------
- Target under test: Cannabinoid receptor 2 (Homo sapiens)
- Sequence (P34972 whole entry): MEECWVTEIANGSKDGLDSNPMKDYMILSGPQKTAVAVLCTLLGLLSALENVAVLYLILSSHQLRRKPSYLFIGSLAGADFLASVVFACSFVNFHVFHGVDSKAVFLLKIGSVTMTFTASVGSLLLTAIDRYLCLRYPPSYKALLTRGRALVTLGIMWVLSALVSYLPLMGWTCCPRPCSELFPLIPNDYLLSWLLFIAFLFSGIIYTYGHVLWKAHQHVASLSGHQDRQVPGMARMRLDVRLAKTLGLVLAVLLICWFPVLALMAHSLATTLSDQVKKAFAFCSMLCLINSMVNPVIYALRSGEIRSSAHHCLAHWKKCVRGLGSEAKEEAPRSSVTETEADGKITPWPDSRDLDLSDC
- Test name: Displacement of [3H]-CP55940 from recombinant human CB2 receptor expressed in HEK293 cell membranes after 90 mins by scintillation counting method
Endpoint name: pKi
On this scale, pKi is minus log10 of a concentration expressed in M (mol/L).

// recorded pKi for `C/C=C\C=C/CC/C=C/C=C/C(=O)NCC(C)C` : 7.24

----------
- Target under test: Fatty acid-binding protein 5 (Homo sapiens)
- Sequence (Q01469 whole entry): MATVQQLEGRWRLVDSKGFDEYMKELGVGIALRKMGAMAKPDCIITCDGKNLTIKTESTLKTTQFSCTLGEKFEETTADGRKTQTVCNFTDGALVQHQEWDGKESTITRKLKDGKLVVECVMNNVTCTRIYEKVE
- Test name: Displacement of NBD-Stearate from recombinant human FABP5 measured after 30 mins by fluorescence polarization assay
Endpoint name: Ki

Bench note, Fatty acid-binding protein 5 (Homo sapiens): `CC(C)CNC(=O)/C=C/C=C/CCCCCC/C=C/c1ccc2c(c1)OCO2` , Ki reads > 100 µM

----------
- Target under test: Diacylglycerol lipase-alpha (Homo sapiens, UniProt Q9Y4D2)
- Sequence (Q9Y4D2 whole entry): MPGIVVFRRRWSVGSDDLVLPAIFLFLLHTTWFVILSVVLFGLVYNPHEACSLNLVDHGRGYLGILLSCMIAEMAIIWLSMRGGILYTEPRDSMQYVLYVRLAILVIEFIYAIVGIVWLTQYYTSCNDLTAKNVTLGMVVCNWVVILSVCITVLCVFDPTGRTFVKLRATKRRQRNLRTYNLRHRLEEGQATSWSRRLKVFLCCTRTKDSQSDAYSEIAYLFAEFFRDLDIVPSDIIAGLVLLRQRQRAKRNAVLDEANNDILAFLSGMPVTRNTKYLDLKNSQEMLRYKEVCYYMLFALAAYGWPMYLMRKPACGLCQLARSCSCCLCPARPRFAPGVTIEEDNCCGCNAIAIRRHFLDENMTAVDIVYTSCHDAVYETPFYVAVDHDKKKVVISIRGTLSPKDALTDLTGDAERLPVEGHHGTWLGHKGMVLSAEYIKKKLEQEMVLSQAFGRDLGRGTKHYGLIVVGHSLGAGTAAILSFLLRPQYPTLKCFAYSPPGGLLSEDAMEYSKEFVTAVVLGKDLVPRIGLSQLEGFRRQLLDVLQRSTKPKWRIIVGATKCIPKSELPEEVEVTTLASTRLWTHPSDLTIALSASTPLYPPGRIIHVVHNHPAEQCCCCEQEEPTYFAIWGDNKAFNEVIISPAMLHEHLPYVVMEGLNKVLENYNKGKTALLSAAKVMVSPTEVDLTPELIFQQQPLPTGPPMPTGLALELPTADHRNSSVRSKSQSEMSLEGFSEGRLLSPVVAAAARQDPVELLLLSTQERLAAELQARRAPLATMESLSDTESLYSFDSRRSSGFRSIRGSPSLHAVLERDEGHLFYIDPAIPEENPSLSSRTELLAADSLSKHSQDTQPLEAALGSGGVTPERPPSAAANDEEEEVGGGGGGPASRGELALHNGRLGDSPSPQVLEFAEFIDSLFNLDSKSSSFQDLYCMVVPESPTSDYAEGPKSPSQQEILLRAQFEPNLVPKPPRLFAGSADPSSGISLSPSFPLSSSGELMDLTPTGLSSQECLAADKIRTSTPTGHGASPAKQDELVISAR
- Test name: Inhibition of recombinant human DAGLalpha expressed in COS7 cells using [14C]-oleoyl-2-arachidonoyl-glycerol as substrate measured after 20 mins by beta-counting method
Endpoint name: IC50

Compound	Target under test	IC50
C=C(C)[C@@H]1CCC(C)=C[C@H]1c1c(O)cc(CCC)c(C(=O)O)c1O	Diacylglycerol lipase-alpha (Homo sapiens, UniProt Q9Y4D2)	35 µM
CCCCCc1cc(O)c2c(c1)OC(C)(CCC=C(C)C)C=C2 (stereo not drawn)	Diacylglycerol lipase-alpha (Homo sapiens, UniProt Q9Y4D2)	> 100 µM

Field: next compound
// recorded IC50 for `C=C(C)[C@@H]1CCC(C)=C[C@H]1c1c(O)cc(CCCCC)cc1O` : > 100 µM

----------
- Target under test: Cannabinoid receptor 1 (Homo sapiens)
- Sequence (P21554 whole entry): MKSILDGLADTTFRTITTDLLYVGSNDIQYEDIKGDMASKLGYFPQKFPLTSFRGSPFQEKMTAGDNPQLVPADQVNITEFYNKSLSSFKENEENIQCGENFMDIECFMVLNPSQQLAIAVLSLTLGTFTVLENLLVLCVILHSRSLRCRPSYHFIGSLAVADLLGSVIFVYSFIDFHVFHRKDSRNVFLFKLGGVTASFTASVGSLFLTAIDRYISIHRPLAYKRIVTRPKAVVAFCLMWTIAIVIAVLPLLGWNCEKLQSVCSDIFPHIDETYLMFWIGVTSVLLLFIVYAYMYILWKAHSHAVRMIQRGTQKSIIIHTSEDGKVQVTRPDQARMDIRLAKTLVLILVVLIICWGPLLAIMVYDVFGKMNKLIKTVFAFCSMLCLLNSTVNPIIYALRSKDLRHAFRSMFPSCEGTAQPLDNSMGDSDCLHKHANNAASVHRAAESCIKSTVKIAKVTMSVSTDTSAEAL
- Test name: Displacement of [3H]-CP55940 from CB1 receptor (unknown origin)
Endpoint name: Ki (µM)
Report only the number, with the unit µM understood.

Molecule	Ki / µM
Oc1cc(O)c2c(c1)O[C@H](c1cc(O)c(O)c(O)c1)[C@H](O)C2 [EPIGALLOCATECHIN]	35.7

Field: next molecule
// recorded Ki for O=C(O[C@@H]1Cc2c(O)cc(O)cc2O[C@@H]1c1ccc(O)c(O)c1)c1cc(O)c(O)c(O)c1 [EPICATECHIN GALLATE] : 47.3

----------
Reported pIC50 values for the following compounds.
- Test name: Inhibition of MAGL in African green monkey COS cell homogenates using [3H]-arachidonoylglycerol as substrate measured after 20 mins by scintillation counting method
- Type: tissue-based, Chlorocebus aethiops
pIC50: −log10 of the molar value.

Compound	Value
C=C(C)[C@@H]1CCC(C)=C[C@H]1c1c(O)cc(CCCCC)cc1O	< 4.00
CCCc1cc(O)c2c(c1)OC(C)(C)[C@@H]1CCC(C)=C[C@@H]21 [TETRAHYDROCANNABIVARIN]	< 4.30
CCCCCc1cc(O)c2c(c1)OC(C)(C)c1ccc(C)cc1-2	< 4.30
CCCCCc1cc(O)c(C/C=C(\C)CCC=C(C)C)c(O)c1	4.02
CCCCCc1cc(O)c2c(c1)OC(C)(CCC=C(C)C)C=C2 (stereo not given)	4.30
CCCc1cc2c(c(O)c1C(=O)O)[C@@H]1C=C(C)CC[C@H]1C(C)(C)O2	< 4.30
CCCCCc1cc2c(c(O)c1C(=O)O)[C@@H]1C=C(C)CC[C@H]1C(C)(C)O2 [DELTA9-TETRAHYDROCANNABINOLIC ACID A]	4.34
C=C(C)[C@@H]1CCC(C)=C[C@H]1c1c(O)cc(CCC)cc1O	< 4.00
C=C(C)[C@@H]1CCC(C)=C[C@H]1c1c(O)cc(CCCCC)c(C(=O)O)c1O	< 4.30

// recorded pIC50 for `CCCCCc1cc(O)c(C/C=C(\C)CCC=C(C)C)c(O)c1C(=O)O` : < 4.30

----------
- Target under test: Fatty-acid amide hydrolase 1 (Rattus norvegicus) (UniProt P97612)
- Sequence (P97612 whole entry): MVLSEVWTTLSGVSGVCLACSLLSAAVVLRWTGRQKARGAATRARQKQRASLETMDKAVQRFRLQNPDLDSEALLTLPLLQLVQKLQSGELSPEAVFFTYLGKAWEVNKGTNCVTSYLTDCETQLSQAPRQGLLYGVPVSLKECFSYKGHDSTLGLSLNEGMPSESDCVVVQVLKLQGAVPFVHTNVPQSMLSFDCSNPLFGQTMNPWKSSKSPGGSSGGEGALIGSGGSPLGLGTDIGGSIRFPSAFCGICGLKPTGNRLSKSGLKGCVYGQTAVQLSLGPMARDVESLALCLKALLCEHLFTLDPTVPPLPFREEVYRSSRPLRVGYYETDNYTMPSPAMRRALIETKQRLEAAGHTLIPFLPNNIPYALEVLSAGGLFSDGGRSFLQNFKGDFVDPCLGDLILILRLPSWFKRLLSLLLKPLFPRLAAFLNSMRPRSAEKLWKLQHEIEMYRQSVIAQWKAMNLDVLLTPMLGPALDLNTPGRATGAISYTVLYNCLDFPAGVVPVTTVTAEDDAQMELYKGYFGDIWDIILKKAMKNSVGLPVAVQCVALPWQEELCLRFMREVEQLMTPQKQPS
- Test name: Inhibition of FAAH in rat brain membranes at 100 uM using [14C]-AEA as substrate measured after 30 mins by scintillation counting method relative to control
- Assay type: cell membranes
Each record is given Criterion met if its reported Emax is strictly below 40%. Records at or above 40% are given Criterion not met.

Compound	Class label
CCCCCc1cc(O)c2c(c1)OC(C)(CCC=C(C)C)C=C2 (stereo not given) [CANNABICHROMENE]	Criterion not met
CCCc1cc(O)c2c(c1)OC(C)(C)[C@@H]1CCC(C)=C[C@@H]21 [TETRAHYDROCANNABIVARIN]	Criterion met

Strictly below 40%: is that where Emax of `CCCc1cc2c(c(O)c1C(=O)O)[C@@H]1C=C(C)CC[C@H]1C(C)(C)O2` sits?
Criterion met

Strictly below 40%: is that where Emax of C=C(C)[C@@H]1CCC(C)=C[C@H]1c1c(O)cc(CCC)cc1O [CANNABIDIVARIN] sits?
Criterion met

Strictly below 40%: is that where Emax of CCCCCc1cc(O)c(C/C=C(\C)CCC=C(C)C)c(O)c1 [CANNABIGEROL] sits?
Criterion not met

----------
- Target under test: Diacylglycerol lipase-alpha (Homo sapiens) (UniProt Q9Y4D2)
- Test name: Inhibition of recombinant human DAGLalpha expressed in COS7 cells at 50 uM using [14C]-oleoyl-2-arachidonoyl-glycerol as substrate measured after 20 mins by beta-counting method relative to control
- Type: cell-based
Each record is given Y if its reported Emax is strictly below 70%. Records at or above 70% are given N.

Sample answers from the record:
Compound	Class label
C=C(C)[C@@H]1CCC(C)=C[C@H]1c1c(O)cc(CCCCC)cc1O [CANNABIDIOL]	Y
CCCCCc1cc2c(c(O)c1C(=O)O)[C@@H]1C=C(C)CC[C@H]1C(C)(C)O2 [DELTA9-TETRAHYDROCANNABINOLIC ACID A]	N
C=C(C)[C@@H]1CCC(C)=C[C@H]1c1c(O)cc(CCC)cc1O [CANNABIDIVARIN]	N
CCCCCc1cc(O)c2c(c1)OC(C)(C)c1ccc(C)cc1-2 [CANNABINOL]	Y
C=C(C)[C@@H]1CCC(C)=C[C@H]1c1c(O)cc(CCCCC)c(C(=O)O)c1O [CANNABIDIOLIC ACID]	N
C=C(C)[C@@H]1CCC(C)=C[C@H]1c1c(O)cc(CCC)c(C(=O)O)c1O	Y

Next, consider the following compound.
Strictly below 70%: is that where Emax of CCCc1cc(O)c2c(c1)OC(C)(C)[C@@H]1CCC(C)=C[C@@H]21 [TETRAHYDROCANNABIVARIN] sits?
Y
